Biological target: Human CXCR3 (N-delta 4) (Homo sapiens, UniProt P49682)
Construct: CD8 leader (N); Flag tag; expressed in transfected cells; membranes prepared
Assay: Human CXCR3 (N-delta 4) scintillation proximity assay (SPA), [125I] IP-10 binding to Ba/F3-hCXCR3 membranes
Conditions: human CXCR3 (N-delta 4) SPA
Description: The inventive compounds can readily be evaluated to determine activity at The CXCR3 receptors by known methods, such as, for example, Development of Human CXCR3 (N-delta 4) Binding Assay. Cloning and Expression of Human CXCR3 (N-delta 4): The DNA encoding human CXCR3 was cloned by PCR using human genomic DNA (Promega, Madison, Wis.) as a template. […]
endpoint: IC50 (pM)
Numbers only, in pM.

Qu. Need IC50, item CC[C@H]1CN(c2nc(N)c(C(=O)NC(=N)NC)nc2Cl)CCN1C1CCN(C(=O)c2ccc(Cl)nc2N)CC1
Ans. 700

* * *

Provide the recorded pIC50 for the entries that follow.
Target: Human CXCR3 (N-delta 4) (Homo sapiens)
Construct: CD8 leader (N); Flag tag; expressed in transfected cells; membranes prepared
Experiment: Human CXCR3 (N-delta 4) scintillation proximity assay (SPA), [125I] IP-10 binding to Ba/F3-hCXCR3 membranes
Conditions: IC50 rating; 25 pM [125I] IP-10, membranes of Ba/F3 cells expressing human CXCR3 (N-delta 4)
pIC50: −log10 of the molar value.

The following compounds have reported results that may help.
Qu. Need pIC50, item CC[C@H]1CN(c2ncc(C(=O)OC)nc2C)CCN1C1CCN(C(=O)c2ccc(Cl)nc2N)CC1 [compound 161]
Ans. > 7.60

Qu. Request: CC[C@H]1CN(c2nc(N)c(C(=O)N[C@H]3CCC[C@@H]3O)nc2Cl)CCN1C1CCN(C(=O)c2ccc(Cl)nc2N)CC1 [compound 42]
Ans. > 7.60

Qu. Request: CC[C@H]1CN(c2nc(N)c(C(=O)NCCO)nc2Cl)CCN1C1CCN(Cc2cc3ccccc3nc2Cl)CC1 [compound 94]
Ans. < 7.00

Others:
Qu. Need pIC50, item CC[C@H]1CN(c2ncc(C(=O)NC)nc2C(F)(F)F)CCN1C1CCN(C(=O)c2ccc(Cl)nc2N)CC1 [compound 173]
Ans. > 7.60

* * *

Provide the recorded pIC50 for the entries that follow.
Target: Human CXCR3 (N-delta 4) (Homo sapiens)
Construct: CD8 leader (N); Flag tag; expressed in transfected cells; membranes prepared
Sequence (P49682 5-368 limits assumed): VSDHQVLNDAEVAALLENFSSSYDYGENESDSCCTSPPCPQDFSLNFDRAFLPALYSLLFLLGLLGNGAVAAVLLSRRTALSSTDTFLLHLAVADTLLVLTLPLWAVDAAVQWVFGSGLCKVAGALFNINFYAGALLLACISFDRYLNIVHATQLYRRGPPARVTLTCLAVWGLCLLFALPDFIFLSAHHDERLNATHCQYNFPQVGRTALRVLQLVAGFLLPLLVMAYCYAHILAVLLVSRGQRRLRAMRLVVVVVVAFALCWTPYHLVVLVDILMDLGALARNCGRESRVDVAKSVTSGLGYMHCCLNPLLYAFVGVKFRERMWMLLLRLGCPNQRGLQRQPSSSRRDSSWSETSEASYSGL
Experiment: Human CXCR3 (N-delta 4) scintillation proximity assay (SPA), [125I] IP-10 binding to Ba/F3-hCXCR3 membranes
Conditions: IC50 rating; 25 pM [125I] IP-10, membranes of Ba/F3 cells expressing human CXCR3 (N-delta 4)
pIC50: −log10 of the molar value.

Qu. What measured pIC50 is associated with CC[C@H]1CN(c2nc(N)c(C(=O)NCCO)nc2Cl)CCN1C1CCN(Cc2ccc(Cl)nc2Cl)CC1 on Human CXCR3 (N-delta 4) (Homo sapiens)?
Ans. > 7.60

Qu. Request: CC[C@H]1CN(c2nc(N)c(C(=O)NN)nc2Cl)CCN1C1CCN(C(=O)c2ccc(-n3cccc3)nc2)CC1
Ans. 7.00 to 7.60

Qu. Request: CC[C@H]1CN(c2nc(NCC3CC3)c(C(=O)OC)nc2Cl)CCN1C1CCN(C(=O)c2ccc(Cl)nc2N)CC1
Ans. < 7.00

Please go through the list and note pIC50 for each molecule.
1. CC[C@H]1CN(c2ncc(C(=O)NC3(C)CC3)nc2C)[C@H](C)CN1C1CCN(C(=O)c2ccc(Cl)nc2N)CC1
2. CCNC(=O)c1cnc(N2CCN(C3CCN(C(=O)c4ccc(Cl)nc4N)CC3)[C@@H](CC)C2)c(C)n1

Ans.
1. > 7.60
2. > 7.60

Please go through the list and note pIC50 for each molecule.
1. CC[C@H]1CN(c2nc(N)c(C(=O)OC)nc2Cl)CCN1C1CCN(C(=O)c2ccc(Cl)nc2N)CC1
2. CC[C@H]1CN(c2nc(N)c(C(=O)NC)nc2Cl)CCN1C1CCN(C(=O)c2cc(F)c(Cl)nc2Cl)CC1
3. CCNC(=O)NCc1nc(Cl)c(N2CCN(C3CCN(C(=O)c4ccc(Cl)nc4N)CC3)[C@@H](CC)C2)nc1N
4. CC[C@H]1CN(c2nc(N)c(C(=O)NC3CC3)nc2Cl)CCN1C1CCN(Cc2c(C)nn(C)c2C)CC1

Ans.
1: 7.00 to 7.60; 2: > 7.60; 3: > 7.60; 4: < 7.00

Please go through the list and note pIC50 for each molecule.
1. CC[C@H]1CN(c2ncc(C(=O)NC3CC3)nc2C)[C@H](C)CN1C1CCN(C(=O)c2ccc(Cl)nc2N)CC1
2. CC[C@H]1CN(c2nc(NC(=O)N(C)C)c(C(=O)NC)nc2Cl)CCN1C1CCN(C(=O)c2ccc(Cl)nc2N)CC1

Ans.
> 7.60
< 7.00

Please go through the list and note pIC50 for each molecule.
1. CC[C@H]1CN(c2ncc(C(=O)NC(C)C)nc2C)CCN1C1CCN(C(=O)c2ccc(Cl)nc2N)CC1
2. CC[C@H]1CN(c2nc(N)c(C(=O)NCCO)nc2C)CCN1C1CCN(C(=O)c2ccc(Cl)nc2N)CC1
3. CCNC(=O)c1cnc(N2C[C@H](CC)N(C3CCN(C(=O)c4ccc(Cl)nc4N)CC3)C[C@H]2C)c(C)n1

Ans.
1. > 7.60
2. > 7.60
3. > 7.60

* * *

Molecular target: Human CXCR3 (N-delta 4) (Homo sapiens)
Construct: CD8 leader (N); Flag tag; expressed in transfected cells; membranes prepared
Assay: Human CXCR3 (N-delta 4) scintillation proximity assay (SPA), [125I] IP-10 binding to Ba/F3-hCXCR3 membranes
Details: IC50 rating; 25 pM [125I] IP-10, membranes of Ba/F3 cells expressing human CXCR3 (N-delta 4)
endpoint: IC50

The following compounds have reported results that may help.
Qu. Need IC50, item CC[C@H]1CN(c2nc(N)c(C(=O)NCCO)nc2Cl)CCN1C1CCN(Cc2ccc(OC)nc2)CC1 [compound 39]
Ans. < 0.025 µM

Qu. Request: CC[C@H]1CN(c2nc(N)c(C(N)=O)nc2Cl)CCN1C1CCN(Cc2ccc(Cl)nc2)CC1 [compound 49]
Ans. 0.025 to 0.1 µM

Qu. Request: CC[C@H]1CN(c2nc(N)c(C(N)=O)nc2Cl)CCN1C1CCN(Cc2ccc(Cl)c3nc(C(F)(F)F)[nH]c23)CC1 [compound 142]
Ans. > 0.1 µM

Qu. Request: CC[C@H]1CN(c2nc(N)c(C(=O)NCc3cccs3)nc2Cl)CCN1C1CCN(C(=O)c2ccc(Cl)nc2N)CC1 [compound 62]
Ans. 0.025 to 0.1 µM

Qu. Request: CC[C@H]1CN(c2nc(N)c(C(=O)NC(=N)N)nc2Cl)CCN1C1CCN(C(=O)c2ccc(Cl)nc2N)CC1 [compound 3]
Ans. < 0.025 µM

Qu. Request: CC[C@H]1CN(c2nc(N)c(C(=O)NCCO)nc2Cl)CCN1C1CCN(C(=O)c2ccc(Cl)nc2NC)CC1 [compound 91]
Ans. > 0.1 µM

Qu. Request: CC[C@H]1CN(c2nc(N)c(C(=O)N[C@@H]3C[C@@H]3F)nc2Cl)CCN1C1CCN(C(=O)c2ccc(Cl)nc2N)CC1 [compound 37]
Ans. < 0.025 µM

Qu. Request: CC[C@H]1CN(c2nc(N)c(C(=O)NC)nc2Cl)CCN1C1CCN(Cc2coc3ccc(Cl)cc3c2=O)CC1 [compound 140]
Ans. < 0.025 µM

Qu. Request: CC[C@H]1CN(c2nc(N)c(C(=O)NCCO)nc2Cl)CCN1C1CCN(Cc2ccc(NC3CC3)nc2Cl)CC1 [compound 97]
Ans. > 0.1 µM

Qu. Request: CC[C@H]1CN(c2nc(N)c(C(=O)NC3CC3)nc2C)CCN1C1CCN(C(=O)c2ccc(Cl)nc2N)CC1 [Compound No. 157]
Ans. < 0.025 µM

Please go through the list and note IC50 for each compound.
1. CC[C@H]1CN(c2ncc(C(=O)NC3CC3)nc2Cl)CCN1C1CCN(C(=O)c2ccc(Cl)nc2N)CC1 [compound 119]
2. CC[C@H]1CN(c2nc(N)c(C(N)=O)nc2Cl)CCN1C1CCN(Cc2ccc(Cl)c3nn[nH]c23)CC1 [compound 153]
3. CC[C@H]1CN(c2nc(N)c(C(=O)N3CC(O)C3)nc2Cl)CCN1C1CCN(C(=O)c2ccc(Cl)nc2N)CC1 [compound 87]
4. CC[C@H]1CN(c2nc(N)c(C(=O)Nc3ncc[nH]3)nc2Cl)CCN1C1CCN(C(=O)c2ccc(Cl)nc2N)CC1 [compound 28]

Ans.
1. < 0.025 µM
2. > 0.1 µM
3. > 0.1 µM
4. < 0.025 µM
